Examples of compounds with documented IC50 follow.
STUDY_SYSTEM: α-glucosidase (Yeast)
ASSAY: α-glucosidase inhibitory activity (PNPG substrate, absorbance at 405 nm)
Type: biochemical
CONDITION_NOTES: α-glucosidase 0.2 U/mL, pH 6.8, 37 °C
Marks after values point to notes of the source that are not given here.

Some solved entries appear below for comparison.
* C[C@@H]1O[C@@H](Oc2c(-c3ccc(O)c(O)c3)oc3cc(O)cc(O)c3c2=O)[C@H](O)[C@H](O)[C@H]1O | 25.37 ± 0.13 ^e mg/mL
* COc1cc(-c2oc3cc(O)cc(O)c3c(=O)c2O)ccc1O | 255.00 ± 0.11 ^g mg/mL
* O=c1c(O[C@@H]2O[C@H](CO)[C@H](O)[C@H](O)[C@H]2O)c(-c2ccc(O)c(O)c2)oc2cc(O)cc(O)c12 [Hyperoside, hyperoside] | 12.77 ± 0.07 ^d mg/mL

Now turn to the next compound.
Quote IC50 reported for O=C(O)c1ccc(O)c(O)c1 please. 369.00 ± 0.11 ^h mg/mL

====

STUDY_SYSTEM: α-glucosidase (Yeast)
ASSAY: α-glucosidase inhibition type and kinetic analysis (Lineweaver–Burk)
Type: biochemical
CONDITION_NOTES: binding to α-glucosidase; Lineweaver–Burk; listed as HY
TEST_READOUT: Ki
Kindly format the answer as number then unit.

Consider the compound O=c1c(O[C@@H]2O[C@H](CO)[C@H](O)[C@H](O)[C@H]2O)c(-c2ccc(O)c(O)c2)oc2cc(O)cc(O)c12 [Hyperoside, hyperoside] and give its recorded Ki. 3.91 mM
